FYI, the data here is from PubChem BioAssay (NCI).

# Tested on: SK-MEL-2 melanoma
# EXPERIMENT_SUMMARY: NCI tumour cell line growth inhibition, 48 h
MEASURED_ENDPOINT: TGI

# COMPOUND, TESTED_ON, TGI
data = [
    ("O=S(=O)(NC(=S)Nc1ccccc1)c1ccc(N2N=C3c4ccccc4CC3C2c2ccc(Cl)cc2)cc1 (stereo not given)", "SK-MEL-2 melanoma", "47.9 µM"),
    ("FC1CCN(C2(c3cccs3)CCCCC2)CC1", "SK-MEL-2 melanoma", "> 100 µM"),
    ("COc1ccc2nc(-c3ccccc3)cc(Nc3ccc(/C(C)=N/O)cc3)c2c1", "SK-MEL-2 melanoma", "> 100 µM"),
    ("COc1ccc(C(=O)Nc2ncc(Cc3ccc(F)cc3)s2)cc1", "SK-MEL-2 melanoma", "> 100 µM"),
    ("CC1=CC(=O)c2cccc(NC3=NCCO3)c21", "SK-MEL-2 melanoma", "> 100 µM"),
    ("O=C1C[C@@H](c2ccccc2)NCCCCN(O)CCCN1", "SK-MEL-2 melanoma", "> 100 µM"),
]

For the compound O=C1CC(c2ccccc2)Cc2nc3ccc(Cl)cc3cc21 (stereo not given) , give its measured TGI value. > 100 µM

Supply measured TGI of `C=C(C)CC1=C(C(=S)NCCO[Si](C)(C)C(C)(C)C)C(OCC)(OCC)C1=O` in your reply. 34.4 µM

Annotate the compound `Cc1ccc(S(=O)(=O)n2cc(-c3cnc(N)c(Br)n3)c3ccccc32)cc1` with its measured TGI. > 100 µM

Annotate the compound `COc1cc(Nc2ncc3c(n2)-c2ccc(Cl)cc2C(c2c(F)cccc2OC)=NC3)ccc1C(=O)O` with its measured TGI. 38 µM

* * *

# Test system: NCI-H460 lung
# EXPERIMENT_SUMMARY: NCI tumour cell line growth inhibition, 48 h
Recorded TGI, one value per entry.

# COMPOUND, TGI
measured = [
    ("NC1=CC(=O)C(=O)c2cccnc21", "7.38 µM"),
    ("CCOC(=O)CNC(SC)=C(C#N)C#N", "> 100 µM"),
    ("c1ccc(C(=NNc2nc3ccccc3[nH]2)c2ccccn2)nc1", "> 100 µM"),
    ("COc1cc2c3c(cc(Cl)nc3c1OC)C(O)(CC(C)=O)C(=O)N2 (stereo unspecified)", "> 89.6 µM"),
    ("CSc1nc2c(nc(N)n2C2OCC(O)C(O)C2O)c(=O)[nH]1 (stereo unspecified)", "> 100 µM"),
]

Please give measured TGI of the following entry: `CC1=CC(=O)c2cccc(NC3=NCCO3)c21` > 100 µM

* * *

# Test system: UACC-62 melanoma
# EXPERIMENT_SUMMARY: NCI tumour cell line growth inhibition, 48 h
Reported TGI values for a set of compounds
Quick reminder: number only, in µM, skip the unit.

# SMILES_NOTATION, UNITS_SYMBOL, VALUE_MEASURED
measured = [
    ("COc1ccc2nc(-c3ccccc3)cc(Nc3ccc(/C(C)=N/O)cc3)c2c1", "µM", 4.65),
]

Given the compound `N/C(=N\Nc1nc2cc([N+](=O)[O-])ccc2o1)c1ccccn1` , write its reported TGI. 1.54

* * *

The entries below are paired with their reported TGI.
# Test system: SK-MEL-28 melanoma
# EXPERIMENT_SUMMARY: NCI tumour cell line growth inhibition, 48 h

Consider the reported TGI for these compounds:
# COMPOUND, TESTED_ON, TGI
records = [
    ("CCN(CC)c1ccc(/C=C/C(=O)c2cccc(NS(C)(=O)=O)c2)cc1", "SK-MEL-28 melanoma", "> 100 µM"),
    ("C/C1=C\\CC[C@@](C)(O)[C@H]2C[C@H](CC/C(C)=C/CC1)C1(CC1)C(=O)O2", "SK-MEL-28 melanoma", "> 100 µM"),
    ("O=C(CCc1cc(O)cc(O)c1)NCCc1ccc(O)c(O)c1", "SK-MEL-28 melanoma", "> 100 µM"),
    ("CC(=O)O[C@H]1CC[C@@]2(C)C(=CC[C@@H]3[C@@H]2CC[C@]2(C)c4nc(N)c(C#N)cc4C[C@@H]32)C1", "SK-MEL-28 melanoma", "> 100 µM"),
    ("COc1cc2c(c3oc(-c4ccc5c(c4)OCO5)c(O)c(=O)c13)CCC(C)(C)O2", "SK-MEL-28 melanoma", "> 100 µM"),
]

Answer briefly: TGI recorded on SK-MEL-28 melanoma for `c1ccc(Cn2cc3c(c2)-c2oncc2CC3)cc1` > 100 µM

Fill in: TGI on SK-MEL-28 melanoma, entry `COc1cc(C)c(C(=O)/C=C/c2cc(OC)c(O)c(OC)c2)cc1O` 41.4 µM

Param request: TGI | system SK-MEL-28 melanoma | item `ClCc1c(-c2ccccc2)nn(-c2ccccc2)c1CCl` 32.3 µM

Give TGI for c1ccc(C(CCN2CCCC2)c2ccccn2)cc1 (centres undefined) tested on SK-MEL-28 melanoma. > 100 µM

* * *

# Tested on: SK-MEL-2 melanoma
# EXPERIMENT_SUMMARY: NCI tumour cell line growth inhibition, 48 h
MEASURED_ENDPOINT: TGI (µM)
Response body: numeric value in µM, unit text excluded.

Examples from the recorded data:
# MOLECULE, UNITS_SYMBOL, VALUE_MEASURED
records = [
    ("NC(=O)Nc1ccc2ncnc(Nc3ccc(Cl)cc3)c2c1", "µM", 46.7),
    ("O=C1Nc2ccccc2C12CC(c1ccccc1)=NN2 (configuration not stated)", "µM", 46.5),
    ("Cc1cc(N(CCCNc2ccnc3cc(Cl)ccc23)Cc2cccs2)nc(Cl)n1", "µM", 29.6),
]

Look up TGI of `CC1(C)Oc2ccc(Cl)cc2C12CC2` and report it. 33.4

* * *

Measured GI50 values are reported for all entries that follow.
# Test system: SW-620 colon
# EXPERIMENT_SUMMARY: NCI tumour cell line growth inhibition, 48 h

Let me know recorded GI50 for `Cc1cc(C)cc(Nc2nccc(-c3c(-c4ccc(F)cc4)ncn3C3CCNCC3)n2)c1` , thanks. 1.44 µM

Answer with the recorded GI50 of COc1cc2c(cc1OCCCCCCNC(=O)c1cc3ccccc3[nH]1)N=CC1CCCN1C2=O (stereo not given) only. 38.6 µM

Supply reported GI50 belonging to this compound: `CC(=O)NNC(=O)c1nn(-c2ccc(Cl)cc2)cc1OC(C)=O` 23.6 µM

Let me know recorded GI50 for `Cc1cc2nc3ccc(N=Nc4ccc(N(C)C)cc4)cc3n(-c3ccccc3)c-2cc1=N` , thanks. 0.0221 µM

Quick one: give measured GI50 for `C/C1=C\CC[C@@](C)(O)[C@H]2C[C@H](CC/C(C)=C/CC1)C1(CC1)C(=O)O2` 21.8 µM

* * *

# System: OVCAR-8 ovarian
# EXPERIMENT_SUMMARY: NCI tumour cell line growth inhibition, 48 h
Documented TGI across a set of molecules

Provide TGI, system OVCAR-8 ovarian, entry `Cc1c(N2C(=O)/C(=C\c3ccc(O)cc3)N=C2c2ccccc2)c(=O)n(-c2ccccc2)n1C` > 100 µM

Quote TGI with test system OVCAR-8 ovarian for COC(=O)c1ccc(C)cc1C1CN=NC12Cc1cc(C)c(C)cc1C2=O (stereo not given) > 100 µM

Determine reported TGI for `Cc1cc(=O)c2c(O)c3c(O)cc(O)c4c5c(O)cc(O)c6c(O)c7c(=O)cc(C)c8c1c2c(c34)c(c65)c78` ; test system: OVCAR-8 ovarian. > 100 µM

* * *

# System: RPMI-8226 leukemia
# EXPERIMENT_SUMMARY: NCI tumour cell line growth inhibition, 48 h
MEASURED_ENDPOINT: TGI

# COMPOUND, TGI
measured = [
    ("CC1=C(C(=O)Nc2ccccc2C)C(c2ccc(N(C)C)cc2)C(C(=O)Nc2ccccc2C)=C(C)N1", "> 100 µM"),
    ("O=C1C2Cc3ccccc3CN2C(=O)N1CN1CCN(CN2C(=O)C3Cc4ccccc4CN3C2=O)CC1 (stereo not given)", "> 100 µM"),
    ("Oc1c(I)cc(I)cc1CNCCCN(Cc1ccccn1)Cc1ccccn1", "4.47 µM"),
]

Note down TGI recorded for `NC1=CC(=O)C(=O)c2cccnc21` 9.91 µM

Could you please provide reported TGI for `Cc1cccc2c(N)c3cccc(C(=O)NCC[N+](C)(C)Cc4sc(N5CCOCC5)nc4[N+](=O)[O-])c3nc12` ? Thanks! > 100 µM

Let me know recorded TGI for CC1SC2=NC3=C(c4ccccc4C3=O)C(c3ccc(Br)cc3)N2C1=O (stereo not given) , thanks. > 100 µM

Provide one value: measured TGI of COc1ccc2[nH]c(C(=O)N3CC(CCl)c4ccc([N+](=O)[O-])cc43)cc2c1 (stereo not given) > 100 µM

Complete the entry with TGI for CC(NC(=O)C(C)C(=O)NCc1ccc(C(F)(F)F)cc1)C(N)=O (stereo not given) > 100 µM

// fetch TGI given entry `C(=C1\CCC/C(=C/c2ccccc2)C1=NNc1ccccc1)/c1ccccc1` > 100 µM

Specify measured TGI for `O=C(c1ccc(O)cc1)c1ccc(C(=O)c2ccc(O)cc2)cc1` . > 100 µM
